Below is a list of entries, each paired with its recorded Kd value.
Molecular target: T1, histidine-labeled human 4-1BB protein (human, UniProt Q07011 24-186)
T1 construct: also called Human 4-1BB protein antigen (histidine-labeled); human 4-1BB protein and his tag (Acrobiosystem, #41B-H5227); not shown: histidine tag
T1 sequence (Q07011 24-186): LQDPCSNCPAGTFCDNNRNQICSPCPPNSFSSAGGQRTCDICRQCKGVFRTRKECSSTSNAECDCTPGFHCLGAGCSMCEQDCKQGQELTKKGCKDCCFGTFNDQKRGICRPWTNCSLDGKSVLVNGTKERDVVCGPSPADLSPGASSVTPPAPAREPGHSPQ
Test: BLI Octet RED96, AHC sensor, his-tagged antigen
Express it in nM; write the number only.

Consider the following illustrative entries.
PR001836 (antibody, human IgG1, V domains shown, HCAb, heavy chain only, human IgG1 Fc; also called 1016P0020G4) VH: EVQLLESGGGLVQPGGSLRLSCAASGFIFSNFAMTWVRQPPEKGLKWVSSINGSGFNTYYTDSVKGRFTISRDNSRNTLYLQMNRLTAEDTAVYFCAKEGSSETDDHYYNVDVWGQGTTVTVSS	13.5
PR001760 (antibody, human IgG1, V domains shown, HCAb, heavy chain only, human IgG1 Fc; also called 1016P0011G10) VH: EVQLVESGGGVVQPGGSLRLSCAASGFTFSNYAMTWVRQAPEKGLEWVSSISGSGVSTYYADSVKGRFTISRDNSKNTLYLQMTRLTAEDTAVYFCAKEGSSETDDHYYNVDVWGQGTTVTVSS	22.6
PR001833 (antibody, human IgG1, V domains shown, HCAb, heavy chain only, human IgG1 Fc; also called 1016P0016F8) VH: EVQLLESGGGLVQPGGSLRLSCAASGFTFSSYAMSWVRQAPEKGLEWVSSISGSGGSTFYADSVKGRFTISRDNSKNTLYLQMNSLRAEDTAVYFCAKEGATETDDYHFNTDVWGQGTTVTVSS	23.4

## Input Item PR001838 (antibody, human IgG1, V domains shown, HCAb, heavy chain only, human IgG1 Fc; also called 1016P0030B2) VH: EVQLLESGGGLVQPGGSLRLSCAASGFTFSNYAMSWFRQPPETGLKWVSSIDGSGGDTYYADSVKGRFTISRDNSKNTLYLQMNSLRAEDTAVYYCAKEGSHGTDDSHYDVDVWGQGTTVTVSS has what recorded Kd?
## Output 11.2

## Input Item PR001830 (antibody, human IgG1, V domains shown, HCAb, heavy chain only, human IgG1 Fc; also called 1016P0014G8) VH: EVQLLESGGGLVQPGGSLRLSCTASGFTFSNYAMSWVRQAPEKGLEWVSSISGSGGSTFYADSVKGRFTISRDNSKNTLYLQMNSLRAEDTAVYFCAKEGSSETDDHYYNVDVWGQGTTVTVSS has what recorded Kd?
## Output 24.9

## Input Item PR001759 (antibody, human IgG1, V domains shown, HCAb, heavy chain only, human IgG1 Fc; also called 1016P0010D7) VH: EVQLLESGGGLVQPGGSLRLSCAASGFTFSSYAMSWFRQPPETGLQWVSSIGGSGGDTYYADSVKGRFTISRDNSKNTLYLQMNSLRAEDTAVYYCAKEGSNGTDDNYYDVDVWGQGTTVTVSS has what recorded Kd?
## Output 12.3

## Input Item PR001840 (antibody, human IgG1, V domains shown, HCAb, heavy chain only, human IgG1 Fc; also called 1016P0037D2) VH: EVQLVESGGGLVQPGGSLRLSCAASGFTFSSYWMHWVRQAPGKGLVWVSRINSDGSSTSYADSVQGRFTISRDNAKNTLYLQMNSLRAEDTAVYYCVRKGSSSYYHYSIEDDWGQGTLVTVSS has what recorded Kd?
## Output 32.7

## Input Item PR001758 (antibody, human IgG1, V domains shown, HCAb, heavy chain only, human IgG1 Fc; also called 1016P0010B11) VH: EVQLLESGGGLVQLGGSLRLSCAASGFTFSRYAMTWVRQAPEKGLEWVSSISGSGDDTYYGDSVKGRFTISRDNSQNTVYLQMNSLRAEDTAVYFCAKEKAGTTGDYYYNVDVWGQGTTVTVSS has what recorded Kd?
## Output 25.6
